# System: MDA-MB-231 breast
# Experiment notes: NCI-60 one-dose screen, 48 h
# Details: 10 µM
This is part of a sample that, as a whole, favours compounds with a hit. Of some 83,000 tested, about 20% had one in any assay. Active and inactive are the calls of the source. How the source made its calls: active means growth percent below 10; inactive means the rest.
Your answer must be one of the following: YES = active, NO = inactive

In: // outcome(item) with item = `CC(C)c1[nH]nc2c(NCc3ccc(-c4ccccn4)cc3)nc(SCCN(C)C)nc12`
Out: YES

In: Look up the recorded call for `O=C(O)c1ccc(CNc2ccc(C(=O)CCl)cc2)cc1` in this test.
Out: NO

In: // return assay outcome for CC(=O)Oc1ccc(C2=Cc3ccc(OC(C)=O)cc3OC2C)cc1 (configuration not stated)
Out: NO

In: Test call for this molecule, please: `COc1ccc(C(=O)/C=C/c2cc(-c3ccc(OC)c(OC)c3)n[nH]2)cc1OC`
Out: YES

In: Name the outcome recorded for `CCN1CCN(c2ccc(Nc3ncnc4c3nnn4CCc3cc(OC)cc(OC)c3)cc2)CC1` in the assay.
Out: NO

In: Identify the outcome logged in this assay for the molecule shown: `CCOC(=O)Nc1ccc2c(c1)C(=O)N(CC)c1ccccc1O2`
Out: NO

In: For `N#Cc1ccc(-n2cnc(NC(=O)[C@H]3CCN(C#N)C3)c2)cc1` , what call appears in the results of this test?
Out: NO

In: Which outcome was entered for the molecule `CCN(CC)c1ccc(/C=C/C2=[N+](C)c3ccccc3C2(C)C)c(C)c1` in this test?
Out: YES

In: Outcome? `O=C(NC1CCN(Cc2ccccc2)CC1)c1cc(-c2ccncc2)nc2ccc(Cl)cc12`
Out: NO

In: How was `Oc1ccc(/C=N\Nc2ccccn2)c(O)c1` classified in this test?
Out: NO

In: // param item: `COc1ccc(-c2[nH]ncc2-c2cc(OC)c(OC)c(OC)c2)cc1` ; yields the recorded call
Out: YES

In: Answer briefly: the call reported for `CNCCCNCCCN1C(=O)c2ccc3c4c(ccc(c24)C1=O)C(=O)N(CCCNCc1ccccc1OC)C3=O` in this assay.
Out: YES

In: Can you look up the reported call for `O=S(=O)(O)C1(O)CCCCC1` for me?
Out: NO

In: Test call for this molecule, please: `COc1cc(CSc2nc3ccc(Cl)cc3c(=O)n2-c2ccccc2)cc(OC)c1OC`
Out: NO

In: Please share the test call associated with `COc1cccc2c1O/C(=C\c1ccc([N+](=O)[O-])s1)C2=O` .
Out: NO

In: Please state the recorded outcome for this molecule: `CCOC(=O)c1c(C(F)(F)F)n([O-])c2ccc(OC)cc2[n+]1=O`
Out: NO

In: Which outcome was assigned to `CCc1nn2c(-c3cc(OC)c(OC)c(OC)c3)c(-c3cc(OC)c(OC)c(OC)c3)nc2s1` in this test?
Out: NO

In: Per the records of this test, what outcome belongs to `CCn1nc(-c2ccccn2)c2cccnc2c1=S` ?
Out: NO

In: Name the outcome recorded for O=C(c1ccccc1)C(Nc1ccccc1)c1ccccc1 (configuration not stated) in the assay.
Out: NO

In: Dear all, I need the recorded test outcome for `COc1c(-c2c3sc(=O)[nH]c3nc3c2c(=O)[nH]n3C(C)C)cc2c(c1OC)OCO2` , thank you.
Out: NO

In: Dear all, I need the recorded test outcome for NC1CCC(Nc2nc(NCc3ccc(-c4ccco4)nc3)c3ncn(C4CCCC4)c3n2)CC1 (configuration not stated) , thank you.
Out: YES

In: Which result was noted for this molecule in the test: `COc1ccc(-c2nnc(SC/C(=N\O)c3ccccc3)o2)cc1`
Out: NO
